Origin of measurements: PubChem BioAssay (NCI)

- System: BT-549 breast
- Assay Explanation: NCI-60 one-dose screen, 48 h
- Test Context: 10 µM unless noted
- Description: Growth inhibition of the BT-549 human tumor cell line is measured as a screen for anti-cancer activity. Cells are grown in 96 well plates and exposed to the test compound for 48 hours. Compounds are tested at a single concentration, which is 10^-5 M for most compounds. The reported endpoint is percent growth (GI% or GIPRCNT), where numbers from 0 - 100% represent growth inhibition, and numbers from -100% - 0 represent cell death. For example, a value of 40 represents 60% growth inhibition. […]
About 83,000 compounds went through this panel and 20% of them were active in at least one assay; those are over-represented in the sample as a whole. Calls of active or inactive are those of the source. The calls were made as follows: active = growth percent below 10; inactive = the rest.
Returns: one label drawn from active, inactive

Sample answers from the record:
COc1cc(OC)c2c(c1)c1nc3cc(C)c(C)cc3nc1n2CCN(C)C	inactive
CC(C)=CCC/C(C)=C/CC/C(C)=C/CSC[C@H](NC(=O)CCCCCN1CCN(C)CC1)C(=O)NC1CCCCCC1	inactive
Cn1cc(-c2csc(-c3cn(CCN)c4ccccc34)n2)c2cccnc21	inactive

Q: Which outcome did this test record for the molecule `Nc1nc2c3ccncc3cc(-c3cccc(Cl)c3)c2c2cnccc12` ?
A: inactive

Q: Which outcome did this test record for the molecule `Nc1ccc(Br)cn1` ?
A: inactive

Q: Which outcome did this test record for the molecule N#CC1=C(N)Oc2c(sc3c(F)cccc23)C1c1ccc(Cl)cc1 (centres undefined) ?
A: inactive

Q: Which outcome did this test record for the molecule `CC/C=C\C[C@H]1CC=C2C(=O)C=C[C@@H]2CC=CCCCC(=O)O[C@@H](CCCCC)CC=C2C(=O)C=C[C@@H]2CC=CCCCC(=O)O[C@@H](CCCCC)CC=C2C(=O)C=C[C@@H]2CC=CCCCC(=O)O[C@@H](CCCCC)CC=C2C(=O)C=C[C@@H]2CC=CCCCC(=O)O1` ?
A: active

Q: Which outcome did this test record for the molecule `O=c1[nH]c(=S)[nH]c2nc[nH]c12` ?
A: inactive

Q: Which outcome did this test record for the molecule `C=C1C(=O)O[C@H]2[C@H]1CC/C(COC(=O)N[C@H](Cc1c[nH]c3ccccc13)C(=O)OC)=C\CC[C@@]1(C)O[C@@H]21` ?
A: inactive

* * *

- System: A498 renal
- Assay Explanation: NCI-60 one-dose screen, 48 h
- Test Context: 10 µM unless noted
Compounds without any hit were thinned out: in the full panel of roughly 83,000, 20% have a hit. The source made the active and inactive calls. The calls were made as follows: active = growth percent below 10; inactive = the rest.
Returns: one label drawn from true (1) for active, false (0) for inactive

O=[N+]([O-])c1ccc(/C=N\Nc2ccccc2)cc1	false (0)
CCCCN1CCCCn2c1nc1c2c(=O)n(C)c(=O)n1C	false (0)
COc1ccc(-c2c(-c3nc4ccc(N5CCOCC5)cc4[nH]3)[nH]c(C)c2C(C)=O)cc1	false (0)
N#Cc1c(-c2ccc(O)cc2)c2c(N)nn(-c3ccccc3)c2[nH]c1=O	false (0)
Fc1ccc(Nc2ccc3c(OCCCN4CCOCC4)cccc3n2)cc1F	false (0)
O=C(CI)Nc1ccc(O)c2ccccc12	false (0)
COc1cc2c(cc1-c1c(C)noc1C)ncc1nc(C3CCCCC3)n([C@@H](C)COC(F)F)c12	true (1)
O=c1c2sc3ncc(Br)cc3c2ncn1-c1cccc(Cl)c1	false (0)
COc1ccccc1-n1cnc(N)c1C(=O)c1cc(OC)c(OC)c(OC)c1	false (0)
CN1CCN(c2nc(-c3csc(-c4cccs4)n3)cc3ccccc23)CC1	false (0)

Q: Which outcome did this test record for the compound `O=C1CCCC=CC[C@H]2C=C(Cl)C(=O)C2=CC[C@H](CCCCC(F)(F)F)OC(=O)CCCC=CC[C@H]2C=C(Cl)C(=O)C2=CC[C@H](CCCCC(F)(F)F)OC(=O)CCCC=CC[C@H]2C=C(Cl)C(=O)C2=CC[C@H](CCCCC(F)(F)F)O1` ?
A: false (0)

Q: Which outcome did this test record for the compound C/C(=N\NC(=O)C(C)SC(C)C(=O)N/N=C(\C)c1cccnc1)c1cccnc1 (stereo unspecified) ?
A: false (0)

* * *

- System: CAKI-1 renal
- Assay Explanation: NCI-60 one-dose screen, 48 h (100 = growth as untreated, 0 = no growth, -100 = all killed)
- Test Context: 10 µM unless noted
This is part of a sample that, as a whole, favours compounds with a hit. Of some 83,000 tested, about 20% had one in any assay.
growth overview
The figure you give is taken to be in %; do not add the unit.

Consider the following illustrative entries.
Cc1cc(C)n(Cc2cc(C(C)(C)C)cc(C(C)(C)C)c2)c(=O)c1C#N	104
N#CC1c2ccccc2-c2ccccc2N1C(=O)c1ccccc1 (stereo not drawn)	37.4

The compound listed as `Nc1ccccc1NC(=O)c1ccc(CN2CCC/C(=C\c3ccccn3)C2=O)cc1` shows growth equal to 17.7

* * *

growth overview
- Tested on: HCC-2998 colon
- Assay Explanation: NCI-60 one-dose screen, 48 h (100 = growth as untreated, 0 = no growth, -100 = all killed)
- Test Context: 10 µM unless noted
About 83,000 compounds went through this panel and 20% of them were active in at least one assay; those are over-represented in the sample as a whole.
The figure you give is taken to be in %; do not add the unit.

Nc1c2c(nc3ccc(Cl)cc13)CC(c1ccc(O)cc1)CC2=O (stereo not given)	77.9
Brc1cnc2[nH]cc(-c3nnc(-c4ccccc4)o3)c2c1	104
Cc1nn(-c2ccc(Cl)cc2)c(=O)n1CCn1cnc2ccccc21	104
C#CCC(C)(O)/C=C/C1=C(C)CCCC1(C)C (stereo not given)	106

Summary line: `O=C(/C=C/c1cccc2ccccc12)Nc1ncc(Cc2ccccc2)s1` , HCC-2998 colon, reported growth = 54.3

Summary line: `O=C1c2cc3c(cc2-c2c1c1ccc(Cl)cc1c(=O)n2C[C@H](O)[C@@H](O)[C@H](O)CO)OCO3` , HCC-2998 colon, reported growth = 16.3

Summary line: COc1ccc(C2CC(=O)c3c(nc4ccc(Cl)cc4c3N)C2)cc1 (stereo not given) , HCC-2998 colon, reported growth = 111

Summary line: `CC(C)=CCC[C@](C)(O)[C@H]1CC[C@]2(C)[C@@H]1CC[C@@H]1[C@@]3(C)C/C(=C/c4cccc([N+](=O)[O-])c4)C(=O)C(C)(C)[C@@H]3CC[C@]12C` , HCC-2998 colon, reported growth = 85.7

Summary line: CC1(C)NC2=C(C(Nc3cccnc3)N1)C(c1ccc([N+](=O)[O-])cc1)C(C(=O)c1ccc(N=[N+]=[N-])cc1)O2 (stereo not given) , HCC-2998 colon, reported growth = 110

Summary line: `COc1ccccc1CNc1nc(N)nc2[nH]c3ccc(O)cc3c12` , HCC-2998 colon, reported growth = 67

* * *

- System: M14 melanoma
- Assay Explanation: NCI-60 one-dose screen, 48 h
- Test Context: 10 µM unless noted
The panel holds about 83,000 compounds, 20% with a hit somewhere; the sample as a whole holds those more often. Calls of active or inactive are those of the source. Rule for the calls: active = growth percent below 10; inactive = the rest.
Returns: one label drawn from active, inactive

Sample answers from the record:
Cc1csc(-c2ccc3c(c2)COC3(CCCN(C)C)c2ccc(F)cc2)c1 (centres undefined)	active
CN1CCN(CCOc2ccc(-c3cnc4c(-c5ccccc5F)cnn4c3)cc2)CC1	active
COc1cc2nc(Cl)nc(Nc3cccc(C(=O)/C=C/c4ccc(F)cc4)c3)c2cc1OC	inactive
N#CC1=C(N)Oc2c(c(N)nn2-c2ccccc2)C1c1ccc(Cl)cc1Cl (centres undefined)	inactive
CC(C)c1cc(C(=O)O)c(O)c(C(C)C)c1.CC(C)c1cc(C(=O)O)c(O)c(C(C)C)c1.[Mn]	inactive
COc1cc(-c2cc3ncccc3c3[nH]c(=O)c4cccnc4c23)cc(OC)c1OC	inactive
N#Cc1cnc2cc(OC[C@@H](O)CO)c(NC(=O)C3CCCC3)cc2c1Nc1ccc(OCc2cccc(F)c2)c(Cl)c1	active
Nc1nc2c(c(=O)[nH]1)C(c1ccc3c(c1)OCO3)C=C(C(=O)O)N2 (centres undefined)	inactive

For the next question, use this molecule.
Q: Which outcome did this test record for the molecule `Cn1cc(-c2nc(-c3cn(C)c4ncccc34)cs2)c2ccccc21` ?
A: active

* * *

- System: HCT-15 colon
- Assay Explanation: NCI-60 one-dose screen, 48 h
- Test Context: 10 µM unless noted
About 83,000 compounds went through this panel and 20% of them were active in at least one assay; those are over-represented in the sample as a whole. Calls of active or inactive are those of the source. Rule for the calls: active = growth percent below 10; inactive = the rest.
Returns: one label drawn from yes = active, no = inactive

Sample answers from the record:
CC(=O)NC1=C(C#N)C(c2ccccc2Cl)c2c(ccc3ccccc23)O1 (stereo unspecified)	no
N#C/C(=C\c1ccc(-c2ccc(F)cc2)o1)c1nc(-c2ccco2)cs1	no
CN(C)c1ccc(N)c2ccccc12	yes
C#CCN=C[C@]12CC[C@@H](C(=C)C)[C@@H]1[C@H]1CC[C@@H]3[C@@]4(C)CCC(=O)C(C)(C)[C@@H]4CC[C@@]3(C)[C@]1(C)CC2	no
COc1cnc2c(c1)C(=O)c1c-2n(CCCNC(C)C)c(=O)c2cc([N+](=O)[O-])ccc12	yes

For the next question, use this compound.
Q: Which outcome did this test record for the compound `NC1=NN=C2N(N)C(=O)c3cnn(-c4ccccc4)c3N2c2nc(-c3ccccc3)cc(-c3ccccc3)c21` ?
A: no
